Observable: melting point

# annotated cases, reported melting point shown
Compound: C[C@H](NC(=O)c1cccc(NS(=O)(=O)CC2CN(C(c3ccc(Cl)cc3)c3ccc(Cl)cc3)C2)c1)C(N)=O
Reading: 229 °C
//
Compound: CC(C)(C)C(Nc1c(Nc2cccnc2)c(=O)c1=O)C(Oc1ccccc1)C(N)=O (centres undefined)
Reading: 227 to 228 °C
//
Compound: CCC(=Nc1ccc2c(c1)C(=O)c1ccc(N=C(CC)N3CCOCC3)cc1C2=O)N1CCOCC1
Reading: 220 to 223 °C

Attention now shifts to the item below.
The reported melting point of the compound "C(=C\c1cc(/C=C/c2ccc3cc[nH]c3c2)[nH]n1)/c1ccc(N2CCOCC2)cc1" was 236 to 238 °C

###

Observable: melting point

# annotated cases, reported melting point shown
Compound: CC1C(=O)NC(=O)NC1=O
Reading: 200 to 215 °C
//
Compound: CCOC(=O)c1c(Cn2cncn2)nc2ccc(Cl)cc2c1-c1ccccc1
Reading: 114 to 116 °C
//
Compound: COc1ccc2cc(I)sc2c1
Reading: 75 to 77 °C
//
Compound: CNc1c(F)cc2c(=O)c(C(=O)O)cn(-c3ccc(F)c(O)c3)c2c1Cl
Reading: > 280 °C
//
Compound: O=C1c2cc([N+](=O)[O-])ccc2CC2CCCCCN12 (stereo not given)
Reading: 118 to 119 °C
//
Compound: NC(=O)N(O)CCNC(=O)COc1cccc(Oc2ccccc2)c1
Reading: 153 to 155 °C

The reported melting point of the compound "O=C(O)c1cccc(-c2cccc(Oc3cc(Cl)cc(Cl)c3)n2)c1" was 234 to 235 °C

The reported melting point of the compound "CSc1cc2c(cc1C(F)(F)F)N(C(=O)Nc1cccc(OCCCN(C)C)c1)CC2" was 149 to 151 °C

The reported melting point of the compound COc1ccc(C2N(C(C)=O)c3ccccc3-c3c([N+](=O)[O-])cnn32)cc1 (stereo not given) was 153 to 154 °C

The reported melting point of the compound "CC(=O)c1ccccc1Nc1ccc(O)cc1" was 168 to 169 °C

The reported melting point of the compound "CCCCc1nc2c(N)nc3ccc(OCc4ccccc4)cc3c2n1CCCCNC(=O)Nc1ccccc1" was 190 to 194 °C

The reported melting point of the compound "CS(=O)(=O)c1ccc(-n2cnc3ccc(-c4nnc(CCc5cccc(C#N)c5)o4)cc32)cc1" was 225 to 226 °C

The reported melting point of the compound "CS(=O)(=O)Oc1ccc2c(=O)c(C(=O)O)cn3c2c1CCC3" was 270 to 275 °C

The reported melting point of the compound "CC(C)N(CC(=O)c1ccc(F)cc1)c1ccccc1" was 78 to 81 °C

###

Quick reference for melting point among some compounds

# annotated cases, reported melting point shown
Compound: NC(=O)Cc1nn(-c2ccccn2)c2[nH]c3ccccc3c(=O)c12
melting point: 302 to 305 °C
--
Compound: CC(=O)Nc1ccc(Oc2ccc(S(C)=O)cc2)cc1 (stereo not given)
melting point: 159 to 161 °C
--
Compound: CSc1ccc(Nc2nc(=O)cc(N)n2-c2ccc(C)cc2)cc1
melting point: 231 to 234 °C
--
Compound: NNC(=O)CSc1nc(Cl)cc(NCc2ccc(Cl)cc2)n1
melting point: 178 to 182 °C
--
Compound: CSc1cnc(NC(=O)c2cccc(OC(C)=O)c2)s1
melting point: 135 to 136 °C

The reported melting point of the compound "CSC(Nc1cccnc1)=C(C#N)C#N" was 180 to 181 °C

The reported melting point of the compound "N#CC1(N)CCOCC1" was 46 to 47 °C

The reported melting point of the compound "Cc1cccc2c1NC(=O)CC2(C)C" was 120 °C

###

Quick reference for melting point among some compounds

# annotated cases, reported melting point shown
Compound: CCOc1nc(Nc2cccc(C(F)(F)F)c2)nc(N2CCN(C(=O)c3ccn(CC)n3)CC2)n1
melting point: 145 to 148 °C
//
Compound: CCCCCCCCCCCCCC(=O)N[C@H]1CCCNC(=O)C1
melting point: 97 to 98 °C
//
Compound: CCCc1cc2cccc(C(=O)OCOC(=O)C(C)(C)C)c2n1Cc1ccc(-c2ccccc2-c2nnn[nH]2)cc1
melting point: 101 to 103 °C
//
Compound: CC1=C(C(=O)OCCN(C)C)C(c2cccc([N+](=O)[O-])c2)C(C(=O)OCC2CC2)=C(C)N1 (stereo not drawn)
melting point: 125 to 126 °C
//
Compound: CCOC(=O)C1=C(C)NC(O)(c2cccc(Cl)c2)C(C(=O)OCC)C1c1cccc([N+](=O)[O-])c1 (stereo not drawn)
melting point: 212 to 214 °C
//
Compound: CN1CCN(c2ccc3nnn(Cc4ccc5ncccc5c4)c3n2)CC1
melting point: 131 to 133 °C
//
Compound: O=C(Nc1ccc(Br)cc1)c1ccccc1[N+](=O)[O-]
melting point: 202 to 205 °C
//
Compound: Cc1ccc(C(=O)O)c(C2=NC(=O)C(C)(C(C)C)N2)n1 (stereo not drawn)
melting point: 139 to 142 °C
//
Compound: O=CC=C(c1cccc(F)c1)c1cccc(F)c1
melting point: 51 to 53 °C
//
Compound: CN(C)CCOC(=O)C(=O)c1ccc(OCCOc2ccc3ccccc3c2)s1
melting point: 76 to 77 °C

Attention now shifts to the item below.
The reported melting point of the compound Cn1cncc1C(N)(c1ccc([N+](=O)[O-])cc1)c1ccc2c(c1)c(-c1cccc(Cl)c1)cc(=O)n2C (stereo not drawn) was 258 °C

###

Observable: melting point

# annotated cases, reported melting point shown
Smiles Str: O=c1c(CCc2cccs2)cc2cccnc2n1-c1cccc([N+](=O)[O-])c1
melting point: 175 to 176 °C

Smiles Str: COc1ccc(N2CCN(CC[C@H]3CC[C@H](NC(=O)N(C)C)CC3)CC2)c(Cl)c1Cl
melting point: 196 to 198 °C

Attention now shifts to the item below.
The reported melting point of the compound "Cc1ccccc1CNCCNCc1ccccc1C" was 51 to 52 °C

###

Quick reference for melting point among some molecules

# annotated cases, reported melting point shown
Molecule: CNc1cc2c(cc1Cl)CCN(C)C[C@@H]2c1ccccc1
Reading: 98 to 100 °C
//
Molecule: CC(C)c1cn2ccccc2c1S(=O)(=O)c1ccc(OCCCN2CCN(C(c3ccccc3)c3ccccc3)CC2)cc1
Reading: 170 °C
//
Molecule: COc1cccc2sc(-c3ccc(C(F)(F)F)cc3)nc12
Reading: 104 °C

The reported melting point of the molecule "O=Cc1c2ccccc2c(SCCO)c2ccccc12" was 103 to 104 °C

The reported melting point of the molecule "CC(=O)Nc1ccc2oc(=O)[nH]c2c1" was 295 to 300 °C

The reported melting point of the molecule "COc1ccccc1-n1ccc(=O)c(-c2ccnn2-c2ccccc2)n1" was 153 to 154 °C

###

Quick reference for melting point among some molecules

Molecule: Cc1oc(-c2ccccc2)nc1CCOc1ccc(C[C@H](OC(C)C)C(=O)O)c2sccc12
Reading: 167 to 168 °C
//
Molecule: O=C(O)C1CC1c1cc(=O)c2ccc3ccccc3c2o1 (centres undefined)
Reading: 286 to 288 °C
//
Molecule: O=C(Nc1ccc(CCc2ccc(O)c(O)c2)cc1)C(=O)C1=C(O)c2ccccc2SC1
Reading: 166 to 167 °C
//
Molecule: Fc1ccc(N2CCN(CCCc3cnc4n3CCCC4)CC2)cc1
Reading: 106 to 108 °C
//
Molecule: CCOC(=O)Cc1csc(Sc2ccc(OCc3nc(-c4ccccc4)oc3C)cc2)n1
Reading: 95 to 96 °C

The reported melting point of the molecule CC(c1ccc(C#Cc2ccccc2)cc1)N(O)C(N)=O (centres undefined) was 144 to 146 °C

The reported melting point of the molecule CCCCCCCCOc1ccc(C2CN=C(c3c(F)cccc3Cl)S2)cc1 (centres undefined) was 41 to 41.5 °C

The reported melting point of the molecule "CCOC(=O)Cn1nnnc1S(=O)(=O)c1ccc(C)cc1" was 98 to 100 °C

The reported melting point of the molecule "NCCNC(=O)CNC(=O)Cc1ccccc1" was 132 to 137 °C

The reported melting point of the molecule "COc1ccc(C(=O)c2cc3cc(Br)ccc3o2)cc1" was 143 to 146 °C

The reported melting point of the molecule Nc1nc(OCCC2CCCCC2)nc2c1ncn2C1OC(CO)C(O)C1O (centres undefined) was 105 to 112 °C

The reported melting point of the molecule OCC1C=CC(n2cnc3cc(Cl)c(Cl)cc32)C1 (centres undefined) was 166 to 169 °C

The reported melting point of the molecule "CCCn1c(=O)c2[nH]c(N3CCOCC3)nc2n(CCC)c1=O" was 251 to 252 °C

The reported melting point of the molecule "NC(=S)Nc1ccc(C(F)(F)F)cn1" was 203 to 205 °C
